The reported numbers originate from paper PMC10515640.

target: 14-3-3σ/C-RAF (Homo sapiens); construct: The 14-3-3 σ isoform (full-length for mass spectrometry and fluorescence anisotropy assays, ΔC for crystallography); made in house; host or cells: E. coli Rosetta 2(DE3)pLysS, pPROEX HTb vector; experiment: Mass spectrometry dose response, compound binding to 14-3-3σ in the presence of C-RAF phosphopeptide; conditions: 100 nM compound, 100 nM 14-3-3σ, C-RAF peptide 18 µM, 24h
Sequence (P31947 whole entry, canonical isoform): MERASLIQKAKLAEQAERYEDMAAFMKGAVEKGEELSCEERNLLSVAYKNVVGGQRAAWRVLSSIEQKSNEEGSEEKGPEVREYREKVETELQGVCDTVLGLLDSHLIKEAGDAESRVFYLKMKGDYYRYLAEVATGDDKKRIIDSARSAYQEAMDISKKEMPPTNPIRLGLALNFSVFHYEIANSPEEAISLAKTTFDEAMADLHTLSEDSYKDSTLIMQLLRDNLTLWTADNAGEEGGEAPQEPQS
Give measured Percentage (%) bound of compound to 14-3-3σ, CRAF 24h for each item. Keep answers brief.
The answer is to be given in %; state only the numeric part.

Reported Percentage (%) bound of compound to 14-3-3σ, CRAF 24h ( O=C(CCl)NC1CC2(CCN(C(=O)C3(Nc4ccc(Cl)cc4)CCOCC3)CC2)C1 [compound 166] ) = 23.3

Reported Percentage (%) bound of compound to 14-3-3σ, CRAF 24h ( O=C(CCl)NCC1CCN(C(=O)C2(Nc3ccc(Cl)cc3)CCCCC2)CC1 [compound 123] ) = 3.5

Reported Percentage (%) bound of compound to 14-3-3σ, CRAF 24h ( NC1CCC(Nc2ccc(Cl)cc2)(C(=O)N2CCC(CNC(=O)CCl)CC2)CC1 (centres unmarked) [compound 137] ) = 10.4

Reported Percentage (%) bound of compound to 14-3-3σ, CRAF 24h ( CC1CC(Nc2ccc(Cl)cc2)(C(=O)N2CCC(CNC(=O)CCl)CC2)CC(C)O1 (centres unmarked) [compound 178] ) = 5.7

Reported Percentage (%) bound of compound to 14-3-3σ, CRAF 24h ( O=C(CCl)NCCCC1CCN(C(=O)C2(Nc3ccc(Cl)cc3)CCOCC2)CC1 [compound 149] ) = 23.3

Reported Percentage (%) bound of compound to 14-3-3σ, CRAF 24h ( O=C(CCl)N1CC2(CCN(C(=O)C3(Nc4ccc(Cl)cc4)CCOCC3)CC2)C1 [compound 160] ) = 8.4

Reported Percentage (%) bound of compound to 14-3-3σ, CRAF 24h ( Cl.NC1CCC(Nc2ccccc2)(C(=O)N2CCC(CNC(=O)CCl)CC2)CC1 (centres unmarked) [compound 141] ) = 22.1

Reported Percentage (%) bound of compound to 14-3-3σ, CRAF 24h ( O=C(CCl)N1CCC2(CC1)CCN(C(=O)C1(Nc3ccc(Cl)cc3)CCOCC1)CC2 [compound 170] ) = 19.7

Reported Percentage (%) bound of compound to 14-3-3σ, CRAF 24h ( Cl.NC1CCC(Oc2ccccc2)(C(=O)N2CCC(CNC(=O)CCl)CC2)CC1 (centres unmarked) [compound 139] ) = 1.0

Reported Percentage (%) bound of compound to 14-3-3σ, CRAF 24h ( CC(C)(Oc1ccc(Cl)cc1)C(=O)N1CCC(CCNC(=O)CCl)CC1 [compound 28] ) = 40.1

Reported Percentage (%) bound of compound to 14-3-3σ, CRAF 24h ( O=C(CCl)NCC1CCN(C(=O)C2(Nc3ccc(Cl)cc3)CCCC2)CC1 [compound 118] ) = 23.7

Reported Percentage (%) bound of compound to 14-3-3σ, CRAF 24h ( C=CS(=O)(=O)NCC1CCN(C(=O)C2(Nc3ccc(Cl)cc3)CCOCC2)CC1 [compound 155] ) = 1.0

Reported Percentage (%) bound of compound to 14-3-3σ, CRAF 24h ( O=C(CCl)CCC1CCN(C(=O)C2(Nc3ccc(Cl)cc3)CCOCC2)CC1 [compound 156] ) = 99.4

Reported Percentage (%) bound of compound to 14-3-3σ, CRAF 24h ( CC(C)(Oc1ccc(Cl)cc1)C(=O)N1CCC(CCC(=O)CCl)CC1 [compound 37] ) = 100

Reported Percentage (%) bound of compound to 14-3-3σ, CRAF 24h ( O=C(CCl)N1CCC2(CC1)CC(NC(=O)C1(Nc3ccc(Cl)cc3)CCOCC1)C2 [compound 163] ) = 49.6

Reported Percentage (%) bound of compound to 14-3-3σ, CRAF 24h ( O=C(CCl)NCC1CCN(C(=O)C2(Oc3ccc(Cl)cc3)CCC(F)(F)CC2)CC1 [compound 124] ) = 15.3

Reported Percentage (%) bound of compound to 14-3-3σ, CRAF 24h ( CC(C)(Nc1ccccc1)C(=O)N1CCC(CNC(=O)CCl)CC1 [compound 85] ) = 1.5
